Values compiled from patent US7112598B2.

- Test system: mouse acetic acid writhing
- test-method-notes: Antinociceptive action test by mouse acetic acid writhing method
- Assay type: in vivo
- condition-info: 30 mg/kg oral, 20 min before 0.7% acetic acid i.p., writhing counted 10 to 20 minutes after acetic acid, vs vehicle group, average of seven samples
Structures can show the parent of a compound that is named as a salt.
Please note: Inhibition rate (%) exactly at 60% is F. Only values below 60% get T.

{"compound": "COc1ccc(OCCCN(CCO)C(C)C)c(C2Sc3ccc(Cl)cc3N2C(C)=O)c1 (stereo not drawn) [Compound No. 5-3, Hydrochloride]", "category-label": "T"}
{"compound": "COCCOCOCCN(CCCOc1ccc(OC)cc1C1Sc2cc(Cl)ccc2N1C(C)=O)C(C)C (stereo not drawn)", "category-label": "F"}
{"compound": "COCCN(CCCOc1ccc(OC)cc1C1Sc2cc(Cl)ccc2N1C(C)=O)C(C)C (stereo not drawn) [Compound No. 3-25, Hydrochloride]", "category-label": "F"}
{"compound": "COc1ccc(OCCCN(C)C(C)C)c(C2Sc3cc(Cl)ccc3N2C(C)=O)c1 (single isomer, unassigned; (+)) [Compound No. 9-12, Hydrochloride]", "category-label": "T"}
{"compound": "COc1ccc(OC(C)CCN(CCO)C(C)C)c(C2Sc3cc(Cl)ccc3N2C(C)=O)c1 (stereo not drawn) [Compound No. 7-2, Hydrochloride]", "category-label": "F"}

QUERY: Criterion: Inhibition rate (%) strictly below 60%. Is it met by COCOCCN(CCCOc1ccc(OC)cc1C1Sc2cc(Cl)ccc2N1C(C)=O)C(C)C (stereo not drawn) ?
RESULT: F

###

- assayed-target: human κ opioid receptor (Homo sapiens)
- test-method-notes: κ opioid receptor agonist activity test in GTP binding activity measurement system ([35S]GTPγS binding)
- Assay type: biochemical
- condition-info: test compound concentration 10^−9 M; binding of 10^−6 M (−)-U50488 = 100%; human κ opioid receptor membrane preparation; average of duplicate; Hydrochloride
Structures can show the parent of a compound that is named as a salt.
The molecules listed here are annotated with their [^35S]GTP γ S binding %.
Respond numerically; units are % and should not be typed.

QUERY: For the molecule COc1ccc(OCCCN(Cc2ccco2)C(C)C)c(C2Sc3cc(Cl)ccc3N2C(C)=O)c1 (single isomer, unassigned; (+)) [Compound No. 9-5, Hydrochloride] , give its reported [^35S]GTP γ S binding %.
RESULT: 132.5

QUERY: For the molecule COc1ccc(OCCCN(CCO)C(C)C)c(C2Sc3cc(Cl)ccc3N2C(C)=O)c1 (single isomer, unassigned; (-)) [Compound No. 10-2, Hydrochloride] , give its reported [^35S]GTP γ S binding %.
RESULT: 65.8

QUERY: For the molecule CCOCCN(CCCOc1ccc(OC)cc1C1Sc2cc(Cl)ccc2N1C(C)=O)C(C)C (stereo not shown) [Compound No. 3-33, Hydrochloride] , give its reported [^35S]GTP γ S binding %.
RESULT: 75.8

QUERY: For the molecule COc1ccc(OCCCN(Cc2ccco2)C(C)C)c(C2Sc3cc(Cl)ccc3N2C(C)=O)c1 (stereo not shown) [Compound No. 3-38, Hydrochloride] , give its reported [^35S]GTP γ S binding %.
RESULT: 58.4

###

- assayed-target: human κ opioid receptor (Homo sapiens)
- test-method-notes: κ opioid receptor agonist activity test in GTP binding activity measurement system ([35S]GTPγS binding)
- Type: biochemical
- condition-info: test compound concentration 10^−9 M; binding of 10^−6 M (−)-U50488 = 100%; human κ opioid receptor membrane preparation; average of duplicate; Hydrochloride
Structures can show the parent of a compound that is named as a salt.
quantity-name: [^35S]GTP γ S binding % (%)
Respond numerically; units are % and should not be typed.

QUERY: For the compound COCCN(CCCOc1ccc(OC)cc1C1Sc2cc(Cl)ccc2N1C(C)=O)C(C)C.Cl (single isomer, unassigned; (+)) [Compound No. 9-1] , give its reported [^35S]GTP γ S binding %.
RESULT: 93.2

QUERY: For the compound COc1ccc(OCCCN(CCO)C(C)C)c(C2Sc3cc(Cl)ccc3N2C(C)=O)c1 (single isomer, unassigned; (+)) [Compound No. 9-2, Hydrochloride] , give its reported [^35S]GTP γ S binding %.
RESULT: 103.9

QUERY: For the compound COc1ccc(OCCCN(CCO)C(C)C)c(C2Sc3cc(Cl)ccc3N2C(C)=O)c1 (stereo not drawn) [Compound No. 3-2, Hydrochloride] , give its reported [^35S]GTP γ S binding %.
RESULT: 66.5

QUERY: For the compound CCOCCN(CCCOc1ccc(OC)cc1C1Sc2cc(Cl)ccc2N1C(C)=O)C(C)C (single isomer, unassigned; (-)) [Compound No. 10-3, Hydrochloride] , give its reported [^35S]GTP γ S binding %.
RESULT: 55.7

QUERY: For the compound COCCN(CCCOc1ccc(OC)cc1C1Sc2cc(Cl)ccc2N1C(C)=O)C(C)C.Cl (single isomer, unassigned; (-)) [Compound No. 10-1] , give its reported [^35S]GTP γ S binding %.
RESULT: 50.5

QUERY: For the compound CCOCCN(CCCOc1ccc(OC)cc1C1Sc2cc(Cl)ccc2N1C(C)=O)C(C)C (single isomer, unassigned; (+)) [Compound No. 9-3, Hydrochloride] , give its reported [^35S]GTP γ S binding %.
RESULT: 117.5

###

The compounds listed here are annotated with their Inhibition rate (%).
- Tested on: mouse acetic acid writhing
- test-method-notes: Antinociceptive action test by mouse acetic acid writhing method
- Assay type: in vivo
- condition-info: 30 mg/kg oral, 20 min before 0.7% acetic acid i.p., writhing counted 10 to 20 minutes after acetic acid, vs vehicle group, average of seven samples, Hydrochloride, 30 mg/kg
Counter-ions that a name gives are not always drawn.
Respond numerically; units are % and should not be typed.

The examples below pair each entry with its known result.
{"compound": "COc1ccc(OCCCN(CCO)C(C)C)c(C2Sc3cc(Cl)ccc3N2C(C)=O)c1 (stereo not shown) [Compound No. 3-2, Hydrochloride]", "quantity-unit": "%", "recorded-result": 76.1}
{"compound": "COc1ccc(OCCCN(CCO)C(C)C)c(C2Sc3cc(Cl)ccc3N2C(C)=O)c1 (single isomer, unassigned; (+)) [Compound No. 9-2, Hydrochloride]", "quantity-unit": "%", "recorded-result": 81.2}
{"compound": "CCOCCN(CCCOc1ccc(OC)cc1C1Sc2cc(Cl)ccc2N1C(C)=O)C(C)C (stereo not shown) [Compound No. 3-33, Hydrochloride]", "quantity-unit": "%", "recorded-result": 99.5}

Continue with the compound presented below.
QUERY: For the compound CCOCCN(CCCOc1ccc(OC)cc1C1Sc2cc(Cl)ccc2N1C(C)=O)C(C)C (single isomer, unassigned; (+)) [Compound No. 9-3, Hydrochloride] , give its reported Inhibition rate (%).
RESULT: 100.0

###

- assayed-target: human κ opioid receptor (Homo sapiens, UniProt P41145)
- Sequence (P41145 whole entry): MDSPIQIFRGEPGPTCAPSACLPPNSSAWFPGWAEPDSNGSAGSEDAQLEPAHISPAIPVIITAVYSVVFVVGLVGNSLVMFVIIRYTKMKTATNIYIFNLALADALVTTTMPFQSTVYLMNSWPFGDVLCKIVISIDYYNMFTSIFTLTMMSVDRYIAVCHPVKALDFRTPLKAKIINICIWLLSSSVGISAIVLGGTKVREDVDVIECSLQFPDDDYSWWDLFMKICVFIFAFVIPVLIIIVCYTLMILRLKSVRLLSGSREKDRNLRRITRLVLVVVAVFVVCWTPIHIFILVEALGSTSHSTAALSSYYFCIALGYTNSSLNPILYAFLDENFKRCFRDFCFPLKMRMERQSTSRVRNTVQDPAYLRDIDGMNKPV
- test-method-notes: κ opioid receptor agonist activity test in GTP binding activity measurement system ([35S]GTPγS binding)
- Type: biochemical
- condition-info: test compound concentration 10^−9 M; binding of 10^−6 M (−)-U50488 = 100%; human κ opioid receptor membrane preparation; average of duplicate
Counter-ions that a name gives are not always drawn.
Please note: [^35S]GTP γ S binding % exactly at 60% is n. Only values below 60% get y.

{"compound": "COc1ccc(OCCCN(Cc2cccs2)C(C)C)c(C2Sc3cc(Cl)ccc3N2C(C)=O)c1 (single isomer, unassigned; (+)) [Compound No. 9-4, Hydrochloride]", "category-label": "n"}
{"compound": "COCCN(CCCOc1ccc(OC)cc1C1Sc2cc(Cl)ccc2N1C(C)=O)C(C)C (centres unmarked) [Compound No. 3-25, Hydrochloride]", "category-label": "n"}
{"compound": "COc1ccc(OCCCN(C)CCO)c(C2Sc3cc(Cl)ccc3N2C(C)=O)c1 (single isomer, unassigned; (+)) [Compound No. 9-16, Hydrochloride]", "category-label": "y"}
{"compound": "COc1ccc(OC(C)CCN(CCO)C(C)C)c(C2Sc3cc(Cl)ccc3N2C(C)=O)c1 (centres unmarked) [Compound No. 7-2, Hydrochloride]", "category-label": "n"}

QUERY: Criterion: [^35S]GTP γ S binding % strictly below 60%. Is it met by COc1ccc(OCCCN(CCO)CC(C)C)c(C2Sc3cc(Cl)ccc3N2C(C)=O)c1 (centres unmarked) [Compound No. 3-11, Hydrochloride] ?
RESULT: y

QUERY: Criterion: [^35S]GTP γ S binding % strictly below 60%. Is it met by COc1ccc(OCCCN(CCO)C(C)C)c(C2Sc3ccccc3N2C(C)=O)c1 (single isomer, unassigned; (+)) [Compound No. 11-3, Hydrochloride] ?
RESULT: n

QUERY: Criterion: [^35S]GTP γ S binding % strictly below 60%. Is it met by COc1ccc(OCCCN2CCC[C@H]2CO)c(C2Sc3cc(Cl)ccc3N2C(C)=O)c1 (some centres unmarked) [Compound No. 3-12, Hydrochloride] ?
RESULT: n
